Origin of the recorded values: patent US20240067632A1

target: WEE1 (Homo sapiens, UniProt P30291+Q96SW2); construct: C-terminal ePL-tagged (DiscoverX, Fremont, CA) full-length WEE1 expression construct; expressed in transfected cells; host or cells: LentiX-HEK293T (Invitrogen), lentiviral transduction; co-expressing GSPT1-GN (G576N, lacking the first 158 amino acids); assay: WEE1-ePL degradation assay (LentiX-WEE1-ePL-GSPT1-ND cells, InCELL Hunter luminescence, 4 h); assay type: cell-based; details: 293T-LentiX WEE1-ePL cells, lower limit of the fit (0 = luciferase inhibitor, Ymax = DMSO control)
Sequence (P30291 whole entry): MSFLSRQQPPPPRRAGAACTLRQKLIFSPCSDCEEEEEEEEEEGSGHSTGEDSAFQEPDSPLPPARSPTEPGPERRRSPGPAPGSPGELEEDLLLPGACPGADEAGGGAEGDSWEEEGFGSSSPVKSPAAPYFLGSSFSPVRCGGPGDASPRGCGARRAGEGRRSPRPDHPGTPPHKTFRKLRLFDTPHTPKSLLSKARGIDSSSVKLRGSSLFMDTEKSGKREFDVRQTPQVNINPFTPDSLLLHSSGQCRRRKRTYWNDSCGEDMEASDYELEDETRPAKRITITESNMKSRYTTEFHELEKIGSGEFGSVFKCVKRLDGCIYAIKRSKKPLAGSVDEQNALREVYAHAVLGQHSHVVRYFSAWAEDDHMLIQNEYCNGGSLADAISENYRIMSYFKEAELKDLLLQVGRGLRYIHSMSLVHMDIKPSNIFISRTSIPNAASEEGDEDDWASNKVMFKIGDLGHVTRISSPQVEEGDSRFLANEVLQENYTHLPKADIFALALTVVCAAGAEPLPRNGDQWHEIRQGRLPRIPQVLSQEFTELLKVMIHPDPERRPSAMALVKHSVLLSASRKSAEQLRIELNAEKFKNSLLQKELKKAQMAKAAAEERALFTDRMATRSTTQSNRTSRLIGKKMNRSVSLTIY
Sequence (Q96SW2 whole entry): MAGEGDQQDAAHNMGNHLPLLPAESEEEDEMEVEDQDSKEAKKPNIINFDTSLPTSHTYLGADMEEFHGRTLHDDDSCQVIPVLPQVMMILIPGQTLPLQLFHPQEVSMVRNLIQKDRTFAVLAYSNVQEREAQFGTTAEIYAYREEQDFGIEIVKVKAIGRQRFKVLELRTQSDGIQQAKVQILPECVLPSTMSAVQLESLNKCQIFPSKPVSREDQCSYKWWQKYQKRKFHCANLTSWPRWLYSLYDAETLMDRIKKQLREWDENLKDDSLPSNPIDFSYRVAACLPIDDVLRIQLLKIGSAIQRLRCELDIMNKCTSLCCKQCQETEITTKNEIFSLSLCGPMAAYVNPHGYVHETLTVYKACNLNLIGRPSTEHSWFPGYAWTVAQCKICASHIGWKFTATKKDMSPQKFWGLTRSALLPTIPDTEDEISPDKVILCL
Sequence (Q16531 whole entry partner): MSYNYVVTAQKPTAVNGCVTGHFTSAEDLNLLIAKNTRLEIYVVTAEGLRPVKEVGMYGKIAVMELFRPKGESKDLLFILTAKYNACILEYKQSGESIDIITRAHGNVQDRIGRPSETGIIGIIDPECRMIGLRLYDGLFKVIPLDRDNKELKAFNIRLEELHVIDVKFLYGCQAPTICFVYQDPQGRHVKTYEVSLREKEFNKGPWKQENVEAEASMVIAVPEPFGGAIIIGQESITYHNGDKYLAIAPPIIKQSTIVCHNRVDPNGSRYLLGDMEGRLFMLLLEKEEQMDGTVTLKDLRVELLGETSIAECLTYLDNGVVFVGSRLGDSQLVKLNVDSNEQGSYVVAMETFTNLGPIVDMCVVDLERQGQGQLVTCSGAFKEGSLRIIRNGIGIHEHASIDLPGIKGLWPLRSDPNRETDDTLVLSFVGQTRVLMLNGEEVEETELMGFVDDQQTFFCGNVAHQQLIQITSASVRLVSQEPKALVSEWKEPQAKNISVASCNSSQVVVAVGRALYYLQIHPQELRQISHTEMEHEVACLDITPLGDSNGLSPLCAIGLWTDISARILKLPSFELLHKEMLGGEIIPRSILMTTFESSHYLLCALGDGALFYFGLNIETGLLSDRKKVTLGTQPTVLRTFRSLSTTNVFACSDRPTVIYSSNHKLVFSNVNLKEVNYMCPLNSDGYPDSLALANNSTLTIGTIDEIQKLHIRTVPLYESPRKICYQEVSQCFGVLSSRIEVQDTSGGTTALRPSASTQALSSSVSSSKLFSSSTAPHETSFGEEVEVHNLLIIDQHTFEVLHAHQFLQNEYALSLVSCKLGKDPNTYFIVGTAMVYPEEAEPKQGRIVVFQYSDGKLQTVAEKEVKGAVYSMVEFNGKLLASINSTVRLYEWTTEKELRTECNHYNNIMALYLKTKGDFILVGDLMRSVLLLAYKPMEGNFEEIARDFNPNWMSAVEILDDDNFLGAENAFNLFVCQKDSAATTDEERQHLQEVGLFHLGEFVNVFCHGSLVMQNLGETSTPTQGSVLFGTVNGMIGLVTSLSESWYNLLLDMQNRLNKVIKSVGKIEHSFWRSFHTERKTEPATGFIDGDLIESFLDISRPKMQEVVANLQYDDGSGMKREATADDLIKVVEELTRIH
293T-LentiX WEE1-ePL Degradation 4 hr (Ymin) values by entry
measured.property: 293T-LentiX WEE1-ePL Degradation 4 hr (Ymin)

# compound, assay.result
data = [
    ("O=C1CCC(N2Cc3cc(O[C@H]4CCN(Cc5ccc6nc(N7CCOCC7=O)ccc6c5)C4)ccc3C2=O)C(=O)N1 (some centres unmarked)", 32),
    ("O=C1CCC(N2Cc3cc(O[C@H]4CCN(Cc5ccc6nc(N7CCC[C@@]78CCOC8)ncc6c5)C4)ccc3C2=O)C(=O)N1 (some centres unmarked)", 34.08),
    ("CC1(C)COCCN1c1ncc2cc(CN3CC[C@H](Oc4ccc5c(c4)CN(C4CCC(=O)NC4=O)C5=O)C3)ccc2n1 (some centres unmarked)", 31.5),
    ("Cc1cncc(CN2CC[C@H](Oc3ccc4c(c3)CN(C3CCC(=O)NC3=O)C4=O)C2)c1C (some centres unmarked)", 37.63),
    ("O=C1CCC(N2Cc3cc(O[C@H]4CCN(Cc5ccc6nc([C@@H]7CC[C@@H](O)C7)ccc6c5)C4)ccc3C2=O)C(=O)N1 (some centres unmarked)", 31.5),
    ("N#Cc1ccc2cc(CN3CC[C@H](Oc4ccc5c(c4)CN([C@H]4CCC(=O)NC4=O)C5=O)C3)cc(F)c2n1", 27.19),
    ("O=C1CCC(N2Cc3cc(O[C@H]4CCN(Cc5ccc6nc(N7[C@@H]8CC[C@H]7COC8)ncc6c5)C4)ccc3C2=O)C(=O)N1 (some centres unmarked)", 33),
    ("O=C1CCC(N2Cc3cc(O[C@H]4CCN(Cc5cc6ccccc6cn5)C4)c(F)cc3C2=O)C(=O)N1 (some centres unmarked)", 34),
    ("O=C1CC[C@H](N2Cc3cc(O[C@H]4CCN(Cc5ccc6ncccc6c5)C4)ccc3C2=O)C(=O)N1", 26.52),
    ("O=C1CCC(N2Cc3cc(O[C@H]4CCN(Cc5cc6ccc(F)cc6cn5)C4)ccc3C2=O)C(=O)N1 (some centres unmarked)", 28.82),
    ("O=C1CCC(N2Cc3cc(O[C@H]4CCN(Cc5ccc6ccccc6n5)C4)ccc3C2=O)C(=O)N1 (some centres unmarked)", 58),
    ("O=C1CCC(N2Cc3cc(O[C@H]4CCN(Cc5cnc6ccc(F)c(F)c6c5)C4)ccc3C2=O)C(=O)N1 (some centres unmarked)", 43.98),
    ("CN1CC[C@H](c2ccc3cc(CN4CC[C@H](Oc5ccc6c(c5)CN(C5CCC(=O)NC5=O)C6=O)C4)ccc3n2)C1 (some centres unmarked)", 37),
    ("Cc1ccc2cc(CN3C[C@@H](C)[C@H](Oc4ccc5c(c4)CN(C4CCC(=O)NC4=O)C5=O)C3)ccc2n1 (some centres unmarked)", 33),
    ("CC#Cc1ncc2cc(CN3CC[C@H](Oc4ccc5c(c4)CN(C4CCC(=O)NC4=O)C5=O)C3)ccc2n1 (some centres unmarked)", 29),
    ("O=C1CCC(N2Cc3cc(O[C@H]4CCN(Cc5ccc6nc(N7C[C@H]8CCO[C@H]8C7)ccc6c5)C4)ccc3C2=O)C(=O)N1 (some centres unmarked)", 37),
    ("O=C1CCC(N2Cc3cc(O[C@H]4CCN(Cc5ccc6nc(N7CCC(F)(F)CC7)ccc6c5)C4)ccc3C2=O)C(=O)N1 (some centres unmarked)", 21.62),
    ("O=C1CCC(N2Cc3cc(O[C@H]4CCN(Cc5ncc6ccccc6n5)C4)ccc3C2=O)C(=O)N1 (some centres unmarked)", 48.23),
    ("NCc1ccc(COc2ccccc2CN2CC[C@H](Oc3ccc4c(c3)CN(C3CCC(=O)NC3=O)C4=O)C2)cc1 (some centres unmarked)", 88.71),
    ("Nc1cccc(COc2cccc(CN3CC[C@H](Oc4ccc5c(c4)CN(C4CCC(=O)NC4=O)C5=O)C3)c2)c1 (some centres unmarked)", 78.15),
    ("O=C1CCC(N2Cc3cc(O[C@H]4CCN(Cc5ccc6nc(-n7ccccc7=O)ccc6c5)C4)ccc3C2=O)C(=O)N1 (some centres unmarked)", 35),
    ("CO[C@H]1CC[C@H](Nc2ccc3cc(CN4CC[C@H](Oc5ccc6c(c5)CN(C5CCC(=O)NC5=O)C6=O)C4)ccc3n2)CC1 (some centres unmarked)", 32.5),
    ("O=C1CCC(N2Cc3cc(O[C@@H]4CN(Cc5ccc6nc(C7CCOCC7)ccc6c5)C[C@@H]4F)ccc3C2=O)C(=O)N1 (some centres unmarked)", 36),
]
